PROTOCOL DETAILS: Binding affinity to N-terminal FLAG-tagged Plasmodium falciparum recombinant HSP90 ISG-LGA mutant expressed in Escherichia coli BL21(DE3) by microscale thermophoresis assay

COMPOUND	Kd (nM)
COC1=C2C[C@@H](C)C[C@H](OC)[C@H](O)[C@@H](C)/C=C(\C)[C@H](OC(N)=O)[C@@H](OC)/C=C\C=C(/C)C(=O)NC(=CC1=O)C2=O [GELDANAMYCIN]	103

* * *

SYSTEM NAME: HSP90 (Plasmodium falciparum 3D7, UniProt Q8IL32)
Sequence (Q8IL32 whole entry): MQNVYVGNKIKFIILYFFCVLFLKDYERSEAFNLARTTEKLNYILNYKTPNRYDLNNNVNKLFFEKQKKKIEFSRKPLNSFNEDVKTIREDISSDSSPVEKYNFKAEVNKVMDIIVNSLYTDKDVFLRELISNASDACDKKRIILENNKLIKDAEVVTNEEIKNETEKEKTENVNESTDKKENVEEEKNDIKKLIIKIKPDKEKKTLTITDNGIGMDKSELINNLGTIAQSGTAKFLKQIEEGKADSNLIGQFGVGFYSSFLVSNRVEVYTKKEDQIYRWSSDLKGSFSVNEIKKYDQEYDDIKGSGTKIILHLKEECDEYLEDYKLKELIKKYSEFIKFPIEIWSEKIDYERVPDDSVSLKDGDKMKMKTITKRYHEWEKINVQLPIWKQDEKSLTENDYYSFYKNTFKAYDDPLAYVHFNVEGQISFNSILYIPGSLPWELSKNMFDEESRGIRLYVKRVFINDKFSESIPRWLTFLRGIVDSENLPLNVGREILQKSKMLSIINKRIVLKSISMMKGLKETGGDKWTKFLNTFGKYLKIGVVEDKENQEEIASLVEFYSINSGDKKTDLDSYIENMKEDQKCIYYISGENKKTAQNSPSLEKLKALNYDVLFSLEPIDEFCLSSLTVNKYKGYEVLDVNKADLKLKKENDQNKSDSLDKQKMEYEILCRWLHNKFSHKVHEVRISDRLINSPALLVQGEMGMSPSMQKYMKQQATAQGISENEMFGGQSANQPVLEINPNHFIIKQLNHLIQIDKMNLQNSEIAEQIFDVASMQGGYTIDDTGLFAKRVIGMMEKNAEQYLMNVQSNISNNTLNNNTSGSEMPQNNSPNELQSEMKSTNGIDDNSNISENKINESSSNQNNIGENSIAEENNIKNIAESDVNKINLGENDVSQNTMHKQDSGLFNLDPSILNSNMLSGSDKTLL
PROTOCOL DETAILS: Binding affinity to N-terminal FLAG-tagged Plasmodium falciparum recombinant HSP90 (1 to 223) expressed in Escherichia coli BL21(DE3) by microscale thermophoresis assay
Measured Kd, listed per entry.
METRIC: Kd (µM)

In [3]: df
Out[3]:
                                   molecule  endpoint_value
0  COCC(=O)Nc1c(C(=O)OC)n(CCC(C)C)c2ncc(NC(C)CCC=C(C)C)cc12 (racemic)            14.1
1  COCC(=O)Nc1c(C(=O)OC)n(CCC(C)C)c2ncc(NC3CCCCCCC3)cc12            25.4
2  COCC(=O)Nc1c(C(=O)OC)n(C)c2ncc(NC(C)CCC=C(C)C)cc12 (racemic)             115
3  COCC(=O)Nc1c(C(=O)OC)n(CCC(C)C)c2ncc(NC(C)C)cc12             175
